The following molecules are shown together with reported CC50 values.
# Tested on: SK-OV-3
# assayProcedure: Growth inhibition of human SKOV3 cells
# Type: functional
# testParameters: read-out: LC50 (the source's name)
parameter: CC50

> print(dat)
                    compoundstructurestring  reported
1  O=C1Nc2ccccc2/C1=C/c1cn(C(=O)c2c(Cl)cccc2Cl)c2ccccc12  > 100 µM
2  O=C1/C(=C\c2ccccn2)c2ccccc2N1c1c(Cl)cccc1Cl   74.1 µM
3  O=C1/C(=C\c2coc3ccccc3c2=O)c2ccccc2N1c1c(Cl)cccc1Cl  > 100 µM
4  CC1=NN(c2cccc(Cl)c2)C(=O)/C1=C\c1c(O)ccc2ccccc12  > 100 µM
5  CC1=NN(c2cccc(Cl)c2)C(=O)/C1=C\C=C\c1ccccc1  > 100 µM

* * *

The following molecules are shown together with reported Activity values.
# Test system: HOP-92
# assayProcedure: Growth inhibition of human HOP92 cells assessed tumor cell growth at 10^-5 M
# Assay type: functional
# Parameters: scale not given: the % may be the effect or the level left
parameter: Activity (%)

> print(dat)
                     compoundstructurestring  parameter  reported
 1  CC1=NN(c2cccc(Cl)c2)C(=O)/C1=C\c1c[nH]c2ccccc12   Activity      72.8
 2  O=C1/C(=C\c2cn(C(=O)c3ccccc3)c3ccccc23)c2ccccc2N1c1c(Cl)cccc1Cl   Activity      79.8
 3  CC1=NN(c2cccc(Cl)c2)C(=O)/C1=C\c1coc2ccccc2c1=O   Activity     91.19
 4  O=C1Nc2ccccc2/C1=C/c1cn(C(=O)c2c(Cl)cccc2Cl)c2ccccc12   Activity        49
 5  O=C1Nc2ccccc2/C1=C/c1cn(C(=O)c2ccc(Cl)cc2)c2ccccc12   Activity      99.3
 6  O=C1C(=Cc2cn(Cc3ccccc3)c3ccccc23)C(=O)N(Cc2ccccc2)C(=O)N1Cc1ccccc1   Activity      90.9
 7  CC1=NN(c2cccc(Cl)c2)C(=O)/C1=C\c1c(O)ccc2ccccc12   Activity     -2.07
 8  O=C1/C(=C\c2cn(C(=O)c3c(Cl)cccc3Cl)c3ccccc23)c2ccccc2N1C(=O)c1c(Cl)cccc1Cl   Activity      48.5
 9  C#CCN1C(=O)/C(=C\c2cn(CC#C)c3ccccc23)c2ccccc21   Activity      75.1
10  Cc1ccc(S(=O)(=O)n2cc(/C=C3\C(=O)Nc4ccccc43)c3ccccc32)cc1   Activity      67.4
11  CC1=NN(c2cccc(Cl)c2)C(=O)/C1=C\c1cn(C(=O)c2c(Cl)cccc2Cl)c2ccccc12   Activity     75.93

* * *

# Test system: NCI-H226
# assayProcedure: Growth inhibition of human NCI-H226 cells
# Format: functional
The following compounds are shown together with reported log10 of GI50 values.
parameter: log10 of GI50 (log10 of the value in µM)

> print(dat)
                    compoundstructurestring  reported
1  O=C1/C(=C\c2coc3ccccc3c2=O)c2ccccc2N1c1c(Cl)cccc1Cl      1.32
2  CC1=NN(c2cccc(Cl)c2)C(=O)/C1=C\C=C\c1ccccc1      0.41
3  O=C1/C(=C\c2ccccn2)c2ccccc2N1c1c(Cl)cccc1Cl     -2.00
4  CC1=NN(c2cccc(Cl)c2)C(=O)/C1=C\c1c(O)ccc2ccccc12      1.68
5  O=C1Nc2ccccc2/C1=C/c1cn(C(=O)c2c(Cl)cccc2Cl)c2ccccc12      0.87
